- Target system: human D3R (Homo sapiens, UniProt P35462)
- Sequence (P35462 whole entry): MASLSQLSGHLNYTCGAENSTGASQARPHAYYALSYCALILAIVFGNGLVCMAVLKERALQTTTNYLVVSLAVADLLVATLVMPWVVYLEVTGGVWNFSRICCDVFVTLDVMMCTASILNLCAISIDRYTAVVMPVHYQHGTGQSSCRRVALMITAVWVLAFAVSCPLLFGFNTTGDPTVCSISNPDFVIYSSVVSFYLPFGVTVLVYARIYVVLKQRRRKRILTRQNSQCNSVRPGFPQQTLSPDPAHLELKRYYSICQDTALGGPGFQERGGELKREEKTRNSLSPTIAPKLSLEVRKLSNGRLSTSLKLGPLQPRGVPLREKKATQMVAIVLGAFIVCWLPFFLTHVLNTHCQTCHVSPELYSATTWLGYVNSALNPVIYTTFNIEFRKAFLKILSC
- Assay remarks: D3R screening binding with [3H]-methylspiperone in CHO cells (Eurofins)
- Recorded conditions: percentage displacement at 10^-6 M; CHO cells with stable expression of human D3R; read-out: %inh Binding to D3R @1μM
- Experimental: The biological evaluation was initiated by assessing the affinity of the compounds for 5-HT6R in the [^3H]-LSD radioligand binding assay. Experiments were performed in a stable HEK293 cell line expressing the human 5-HT6R [10]. […] Experiments were performed in Chinese hamster ovary (CHO) cells with the stable expression of human D3R (Eurofins, Celle-L’Evescault, France).
Value type: inhibition at 1 µM (%)

These solved cases illustrate the format of a correct answer.
>  <Molecule>
C[C@@H](O)CN1CC[C@H](Nc2nc3ccccc3c3c2ccn3S(=O)(=O)c2cccc(Cl)c2)C1 [Compound 9]

>  <Value type>
inhibition at 1 µM

>  <Measured result>
54

$$$$
>  <Molecule>
CC(C)CN1CCC[C@@H]1CNc1nc2ccccc2c2c1ccn2S(=O)(=O)c1cccc(Cl)c1.Cl [Compound 17]

>  <Value type>
inhibition at 1 µM

>  <Measured result>
57

$$$$

(a) COCCCN1CC[C@H](Nc2nc3ccccc3c3c2ccn3S(=O)(=O)c2cccc(Cl)c2)C1 [Compound 11]
(b) CCN1CCC[C@@H]1CNc1nc2ccccc2c2c1ccn2S(=O)(=O)c1cccc(Cl)c1.Cl [Compound 13]
Exercise: # argmax over inhibition at 1 µM for candidates a and b Your choice should be expressed through its label.
Key: b
